Protocol Text: in vitro
Protocol Conditions: human, hela cells, % viability
Recorded viability at 28.5 h, 10 µM for the following molecules

| Molecule | viability at 28.5 h, 10 µM (%) |
| --- | --- |
| CCCC/C=C/c1cnc(N)c(-c2cccc(N)c2)n1 | 102 |
| COc1cccc(OCc2cnc(-c3ccc(Cl)cc3)c(-c3cccc(CNC(C)=O)c3)c2)c1 | 90.5 |
| CCc1nn2c(=O)cc(CN3C(=O)NC(C)(c4ccco4)C3=O)nc2s1 (stereo not drawn) | 114 |
| C/C(=N\Nc1cccc2cccnc12)C(C)(C)C | 113 |
| COc1ccc([C@@]23CC[C@@H](NC(=O)c4ccc(C(F)(F)F)c(F)c4)C[C@@H]2CN(C)C3)cc1OC [CBK082742C] | 107 |
| CC(C)Nc1cc(SCc2ccc(Cl)c(Cl)c2)ncn1 | 85.1 |
| NS(=O)(=O)c1cc(C(=O)O)ccc1Cl | 108 |
| Cc1ccc(-c2nnc(CNC(=O)c3cccc(Cl)c3)o2)s1 | 79.1 |
| O=C(O)c1cc(-c2ccccc2)nc(Nc2nc3ccccc3s2)n1 | 108 |

---

Protocol Text: in vitro
Protocol Conditions: human, hela cells, % viability

| Compound | viability at 28.5 h, 10 µM [%] |
| --- | --- |
| COc1ccc(CN2CCNC(=O)C2CC(=O)O)c(F)c1 (centres unmarked) | 95.6 |
| C#CC1(OC(=O)CC)CCN(CCCC(=O)c2ccc(F)cc2)CC1 [CBK025277C] | 108 |
| OCCN1CCN(c2ccc(/C=C/c3ccccc3)cn2)CC1 | 89.2 |
| CCNC(=O)CN1CCN(c2ccc(C#N)cc2C(F)(F)F)CC1 | 85 |
| O=P(O)(CN1CCOCC1)CN1CCOCC1 | 97.6 |
| CSc1ncc(CNC(=O)CC2CCc3ccccc32)n1C (centres unmarked) | 85.9 |
| COC(=O)c1ccc(-c2nc3nnc(C)n3[nH]2)cc1 | 103 |
| O=C(c1cc2c(s1)CCC2)N1CCC[C@H]1[C@H](O)c1nccs1 | 92.5 |
| CN(c1cc(F)ccc1[N+](=O)[O-])S(C)(=O)=O | 82.1 |
| CCNC(=O)N1CC2(CCN(CCc3cccc4ccccc34)CC2)c2ccccc21 | 94.7 |
| COc1cccc(/C=C2/SC(=S)NC2=O)c1OCCCOc1ccccc1C | 98.9 |
| O=C(CN1CCC(C(=O)NC(c2ccccc2)c2ccsc2)CC1)c1ccc(F)cc1 (centres unmarked) | 86.9 |
| CCN1CCN(Cc2nc3c([nH]2)c(=O)n(C)c(=O)n3C)CC1 | 90.5 |
| Cc1ccccc1NC(=O)c1c(NC(=O)Cc2ccccc2)sc2c1CCCC2 | 108 |
| O=C(O)C1CC=CCC1C(=O)Nc1ccc(S(=O)(=O)N2CCc3ccccc32)cc1 (centres unmarked) | 108 |
| O=C(CCN1C(=O)c2cccc3cccc(c23)C1=O)Oc1ccc2c(c1)OCO2 | 106 |
| Cc1ccccc1OCc1nc(C#N)c(NCc2ccc3c(c2)OCO3)o1 | 109 |
| CN(C)C(=O)c1cccc(-c2cnc(N3CCOCC3)c3nccn23)c1 | 101 |
| Nc1ncc(-c2ccc(C(=O)N3CCOCC3)cc2)nc1-c1cccnc1 | 106 |
| CC1=NN(c2ccccc2)C(=O)/C1=C\c1ccc(Cl)cc1 | 96.7 |

---

Protocol Text: in vitro
Set-up: Viability of infected HeLa host cells, resazurin conversion, bulk resorufin fluorescence relative to DMSO
Protocol Conditions: human, hela cells; bulk resorufin, mean of 2
The following molecules are listed with their measured viability at 28.5 h, 5 µM values.
Quantity Name: viability at 28.5 h, 5 µM (%)

| Molecule | Unit Text | Observed Result |
| --- | --- | --- |
| Cc1cccc(OCC(C)NC(=O)NCCc2cnn(C)c2)c1 (stereo not drawn) | % | 98.5 |
| c1ccc(CNc2nnc(-c3ccccc3)s2)cc1 | % | 91.9 |
| CC1=NN(c2ccc(C)cc2)C(=O)/C1=C\Nc1ccc(S(=O)(=O)Nc2nc(C)cc(C)n2)cc1 | % | 99.4 |
| CC(=O)NC[C@H]1CN(c2ccc(-c3nnc([C@@H](C)N)s3)c(F)c2)C(=O)O1 | % | 87.1 |
| O=C(CSc1nnc(-c2cccnc2)o1)c1ccccc1 | % | 111 |
| O=C(CSCc1ccc(Cl)cc1)Nc1ccc(S(=O)(=O)N2CCCCCC2)cc1 | % | 104 |
| COc1cc(/C=N/c2cccc3c(/N=C/c4ccc(O)c(OC)c4)cccc23)ccc1O | % | 86.7 |
| CCC1C(c2ccc(C)cc2)=CCC(C(=O)NCCCN(C)C)C1C (stereo not drawn) | % | 88.9 |
| Cc1ccc(Cn2c(=N)n(CC(=O)c3cc(C(C)(C)C)c(O)c(C(C)(C)C)c3)c3ccccc32)cc1 [CBK262458B] | % | 96.7 |

---

Measured viability at 28.5 h, 10 µM by item
Protocol Text: in vitro
Protocol Conditions: human, hela cells, % viability

| Molecule | viability at 28.5 h, 10 µM, % |
| --- | --- |
| Cn1cc(C(=O)N2C3CCC(C3)[C@@H]2COc2ccc(F)cc2)cn1 (some centres unmarked) [CBK284605] | 93.7 |
| Cc1ccc(C)c(NC(=O)N2CCC3(CCc4nccc(C)c4C3=O)CC2)c1 [CBK059554] | 91.6 |
| Cc1nc2ccc(C(=O)NCCn3ccnc3C)cc2s1 [CBK282477] | 88.1 |
| Cn1c(=O)c2c(ncn2Cc2ccc(C#N)cc2)n(C)c1=O [CBK134217] | 106 |
| O=C(CSc1nc2ccccc2[nH]1)Nc1ccc(OC(F)(F)F)cc1 [CBK269711] | 104 |

---

Recorded measurements of viability at 28.5 h, 10 µM, one per entry
Protocol Text: in vitro
Protocol Conditions: human, hela cells, % viability

| Compound | viability at 28.5 h, 10 µM, % |
| --- | --- |
| CSc1cc(-c2cccs2)[nH]c(=O)c1C#N [CBK006350] | 79.7 |
| O=C(c1ccco1)N1CCCC(n2c(=O)oc3ccc(Cl)cc32)C1 (stereo not shown) [CBK282892] | 91.5 |
| COc1cc(NC(=S)NCCN2CCOCC2)c(OC)cc1Cl [CBK265888] | 101 |
| COc1ccc(S(=O)(=O)N2CCCCC2)cc1NC(=O)c1ccc(-c2nnn[nH]2)cc1 [CBK297128] | 93 |
| COC[C@@H]1OC[C@@]2(C)C3CC[C@@H](O)[C@@H](CC(=O)N4CCCCC4)[C@]3(C)CC[C@H]2O1 (stereo partly shown) [CBK289573] | 88.3 |
| Cc1ccc(/C=N/n2c(S)nnc2COc2ccccc2)o1 [CBK265244] | 110 |
| Cc1onc(-c2ccccc2)c1CNC(=O)c1cncnc1 [CBK144098] | 90.6 |
| CC(=O)c1cc(C(=O)N(C)CCOc2ccccc2)cs1 [CBK282560] | 99.6 |
| O=C(Nc1nnc(-c2ccco2)o1)c1ccc2c(c1)CCCC2 [CBK287425] | 79.1 |
| CCCCc1ccc(C(N)=O)nc1C(N)=O [CBK005061] | 88.8 |
| Cc1ccc(OCc2cc(C)on2)c(Br)c1 [CBK002837] | 109 |
| CN(CC(=O)NNC(=O)c1cccs1)S(=O)(=O)c1ccc2ccccc2c1 [CBK267409] | 90.8 |
| Cc1csc([C@H]2Cc3ccsc3[C@@H](C3CCOC3)N2)n1 (stereo partly shown) [CBK285089] | 102 |
| O=C1CC(c2cccnc2)c2sc(N3CCOCC3)nc2N1 (stereo not shown) [CBK287927] | 105 |
| COc1ccc(CNC(=O)c2cnc(-c3ccc(F)cc3)c(-c3ccc(C(C)=O)s3)c2)cc1 [CBK036577] | 90.7 |
| O=c1c2c([nH]c3nc(NCc4ccc(OCc5ccccc5)cc4)nn13)CCC2 [CBK268044] | 96.9 |
| c1ccc(CCNc2nccnc2-c2cccs2)nc1 [CBK036776] | 97.7 |
| CN(CCN1CCCCC1)C(=O)C1Cc2cc(Cl)ccc2O1 (stereo not shown) [CBK282640] | 95.4 |
| CN1CC[C@]2(c3ccc4c(c3)nnn4C)CC[C@@H](NC(=O)Nc3cc(F)cc(C(F)(F)F)c3)C[C@H]12 [CBK067800] | 99.2 |

---

Each item that follows carries a reported viability at 28.5 h, 10 µM.
Protocol Text: in vitro
Protocol Conditions: human, hela cells, % viability

| Molecule | viability at 28.5 h, 10 µM (%) |
| --- | --- |
| COc1ccc(-c2ccccc2)cc1NCc1cc2cc(OC)c(OC)cc2[nH]c1=O | 99.5 |
| Oc1ccccc1-c1cc(-c2cc3ccccc3o2)no1 | 113 |
| Cn1ncc2c(=O)n(Cc3nnsc3Cl)cnc21 | 102 |
| CC(=O)Nc1ccc(-c2cc(-c3ccc(NC(C)=O)cc3)nc(-c3ccc([N+](=O)[O-])cc3)n2)cc1 | 91.5 |
| O=C(NCc1cccs1)c1ccc(N2CCN(C(=O)c3ccccc3C(F)(F)F)CC2)nn1 | 87.6 |
| CCN1CC2(CCN(CC(N)=O)CC2)c2ccccc21 | 107 |
| CC(=O)N(Cc1ccccc1)c1ccc(C(=O)O)cc1 | 102 |
| CC(=O)Nc1ccc(-c2cccc(COC3CCN(C(=O)Cc4ccc(Cl)c(Cl)c4)CC3)c2)cc1 | 109 |
| O=c1[nH]c(=O)c2cc(S(=O)(=O)NC(c3ccccc3)c3ccccc3)ccc2[nH]1 | 89.4 |
| CN(C)C(=O)c1ccc(-c2ccc3c(c2)COC(C2CCN(C(=O)CC4CCCCC4)CC2)O3)cc1 (stereo not shown) | 114 |
| COc1cccc2cc(C(=O)NCc3ccc(Cl)c(Cl)c3)oc12 | 85.2 |
| COCCCn1c(=O)[nH]c2ncc(-c3ccco3)nc21 | 99.2 |
| COc1cc(/C=N/NC(=O)Cc2nnc(N)s2)cc(OC)c1OC | 109 |
| O=C(O)C1CC(O)CN1S(=O)(=O)c1ccc([N+](=O)[O-])cc1 (stereo not shown) | 100 |
| NC(=O)CN1CCC(Oc2cncc(OCc3cccnc3)n2)C1 (stereo not shown) | 98 |
| c1coc(CCC2NCCn3cccc32)c1 (stereo not shown) [CBK023964F] | 95.2 |
| O=C(Nc1ccccc1Cl)Nc1[nH]nc(O)c1Cc1c(Cl)cccc1Cl | 113 |
| COc1ccc(-c2ccc3c(c2)C(=O)N2CC[C@H](N)C[C@H]2C(=O)N3)c(OC)c1 | 104 |
| Cn1cc([C@@H]2CN(Cc3cccs3)C[C@H]2N)c2ccncc21 | 98.9 |
